Each recorded value in this set is attributed to patent US7910582B2.

assay: Pharmacokinetics and bioanalysis in the rat; type: in vivo, male Sprague Dawley Rats; settings: i.v. 1 mg/kg, citric acid salt
Below, each entry is listed with its recorded CI.

compound: O=C(O)CC(O)(CC(=O)O)C(=O)O.O=C(c1ccc(CN2CCSCC2)cc1)N1CCN(C2CC2)CC1
CI: 282 mL/min/kg
--
compound: O=C(O)CC(O)(CC(=O)O)C(=O)O.O=C(c1ccc(CN2CCC(F)CC2)cc1)N1CCN(C2CCC2)CC1
CI: 113 mL/min/kg
--
compound: CC(C)N1CCN(C(=O)c2ccc(CN3CCOC(CO)C3)cc2)CC1 (stereo not shown)
CI: 34.9 mL/min/kg
--
compound: O=C(O)CC(O)(CC(=O)O)C(=O)O.O=C(c1ccc(CN2CCOCC2)cc1)N1CCN(C2CC2)CC1
CI: 21.6 mL/min/kg
--
compound: O=C(O)CC(O)(CC(=O)O)C(=O)O.O=C(c1ccc(CN2CCSCC2)cc1)N1CCN(C2CCC2)CC1
CI: 154 mL/min/kg
--
compound: CC(C)N1CCN(C(=O)c2ccc(CN3CCC(F)CC3)cc2)CC1.O=C(O)CC(O)(CC(=O)O)C(=O)O
CI: 44.2 mL/min/kg
--
compound: O=C(O)CC(O)(CC(=O)O)C(=O)O.O=C(c1ccc(CN2CCOCC2)cc1)N1CCN(C2CCC2)CC1
CI: 34.8 mL/min/kg
--
compound: O=C(O)CC(O)(CC(=O)O)C(=O)O.O=C(c1ccc(CN2CCOC(CO)C2)cc1)N1CCN(C2CC2)CC1 (stereo not shown)
CI: 15.2 mL/min/kg
--
compound: CC(C)N1CCN(C(=O)c2ccc(CN3CCOCC3)cc2)CC1.O=C(O)CC(O)(CC(=O)O)C(=O)O
CI: 12.8 mL/min/kg
--
compound: O=C(O)CC(O)(CC(=O)O)C(=O)O.O=C(c1ccc(CN2CCC(F)CC2)cc1)N1CCN(C2CC2)CC1
CI: 41.4 mL/min/kg
